- PROTOCOL DETAILS: Cell viability after hydrogen peroxide (Cell Counting Kit-8), diabetic fibroblasts
- Type: cell-based, rat
- RECORDED CONDITIONS: female, Coto Kakizaki (diabetic), rat, primary dermal fibroblasts from diabetic rats (DFs); DFs, 50 uM HP, 16 hours; read-out: loss in cell viability
ENDPOINT NAME: cytotoxicity at 16 h, 50 uM (%)
Give the value, in units of %, as a plain number.

Fill in cytotoxicity at 16 h, 50 uM for record OO [HP, hydrogen peroxide]
55

====

- PROTOCOL DETAILS: Cell viability after hydrogen peroxide (Cell Counting Kit-8), diabetic fibroblasts
- Format: cell-based, rat
- RECORDED CONDITIONS: female, Coto Kakizaki (diabetic), rat, primary dermal fibroblasts from diabetic rats (DFs); DFs, 37.5 uM HP, 16 hours; read-out: loss in cell viability
- Method: To determine the effect of α-lipoic acid on isolated cells from normal and diabetic rats, primary rat fibroblasts were derived from dorsal skin biopsies performed on four diabetic Coto Kakizaki rats (DFs) and four age-matched (12-14 months) and sex-matched (female) Wistar control rats (CFs). […] Fibroblasts were seeded at 1×10^4 cells/well on a 96-well plate. […] Quantification of cell viability was assessed using a Cell Counting Kit-8 (Dojindo, Kumamoto, Japan). […]
ENDPOINT NAME: cytotoxicity at 16 h, 37.5 uM (%)
Give the value, in units of %, as a plain number.

Fill in cytotoxicity at 16 h, 37.5 uM for record OO [HP, hydrogen peroxide]
17

====

- PROTOCOL DETAILS: Cell viability after hydrogen peroxide (Cell Counting Kit-8), diabetic fibroblasts
- Format: cell-based, rat
- RECORDED CONDITIONS: female, Coto Kakizaki (diabetic), rat, primary dermal fibroblasts from diabetic rats (DFs); DFs, 75 uM HP, 16 hours; read-out: loss in cell viability
ENDPOINT NAME: cytotoxicity at 16 h, 75 uM (%)
Give the value, in units of %, as a plain number.

Fill in cytotoxicity at 16 h, 75 uM for record OO [HP, hydrogen peroxide]
78
